test system: 349418-098-R-PDC complex spheroid viability; assay: Anticancer human tumor 349418-098-R-PDC patient-derived lung adenocarcinoma cell line growth inhibition [RAS]; settings: second compound 0.00949 µM; first compound 0.00316 µM; active compounds read low
recorded.endpoint: viability, T/C (%)
Provide the reading as a plain figure in %.

Some solved entries appear below for comparison.
O=C(c1ccc(F)c(F)c1Nc1ccc(I)cc1F)N1CC(O)([C@@H]2CCCCN2)C1 + CCn1c(-c2cc(N3CCN(C)CC3)cnc2C(C)OC)c2c3cc(ccc31)-c1csc(n1)CC(NC(=O)C1CC1C)C(=O)N1CCCC(N1)C(=O)OCC(C)(C)C2 ... 20
CCN1CCN(Cc2ccc(Nc3ncc(F)c(-c4cc(F)c5nc(C)n(C(C)C)c5c4)n3)nc2)CC1 + CCn1c(-c2cccnc2C(C)OC)c2c3cc(ccc31)N1CCOC(CC(NC(=O)C(C(C)C)N(C)C(=O)C3(F)CCN(C(=O)C#CC(C)(C)N(C)C)CC3)C(=O)N3CCCC(N3)C(=O)OCC(C)(C)C2)C1 ... 96

If you can, please state the reported viability, T/C value of Nc1ccn(C2OC(CO)C(O)C2(F)F)c(=O)n1 (centres undefined) + CCn1c(-c2cccnc2C(C)OC)c2c3cc(ccc31)N1CCOC(CC(NC(=O)C(C(C)C)N(C)C(=O)C3(F)CCN(C(=O)C#CC(C)(C)N(C)C)CC3)C(=O)N3CCCC(N3)C(=O)OCC(C)(C)C2)C1 .
20.5

viability, T/C lookup needed for C=CC(=O)Nc1cc(Nc2nccc(-c3cn(C)c4ccccc34)n2)c(OC)cc1N(C)CCN(C)C + CCn1c(-c2cc(N3CCN(C)CC3)cnc2C(C)OC)c2c3cc(ccc31)-c1csc(n1)CC(NC(=O)C1CC1C)C(=O)N1CCCC(N1)C(=O)OCC(C)(C)C2 , thanks.
100

* * *

# Lookup of reported viability, T/C keyed by entry
system: 349418-098-R-PDC complex spheroid viability; assay: Anticancer human tumor 349418-098-R-PDC cell line growth inhibition [RAS]; conditions: second compound 0.1 µM; first compound 0.0316 µM; active compounds read low;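 note: spheroids exposed to compound for seven days before viability readout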
Number only, in %; omit the unit.

C[C@@H](NC(=O)c1ncnc(N)c1Cl)c1ncc(C(=O)Nc2cc(C(F)(F)F)c(Cl)cn2)s1 + C=CC(=O)N1CCN(c2nc(OCC3CCCN3C)nc3c(F)c(-c4nc(N)cc(C)c4C(F)(F)F)c(Cl)cc23)C(C)C1 ... 80.6
CC(C)NCC(C(=O)N1CCN(c2ncnc3c2C(C)CC3O)CC1)c1ccc(Cl)cc1 (stereo not given) + C=CC(=O)N1CCN(c2nc(OCC3CCCN3C)nc3c(F)c(-c4nc(N)cc(C)c4C(F)(F)F)c(Cl)cc23)C(C)C1 ... 70
CC(C)NCC(C(=O)N1CCN(c2ncnc3c2C(C)CC3O)CC1)c1ccc(Cl)cc1 (stereo not given) + C#Cc1c(F)ccc2cc(O)cc(-c3ncc4c(N5CC6CCC(C5)N6)nc(OCC56CCCN5CC(F)C6)nc4c3F)c12 ... 62.7
CC(C)n1nc(-c2ccc3oc(N)nc3c2)c2c(N)ncnc21 + C#Cc1c(F)ccc2cc(O)cc(-c3ncc4c(N5CC6CCC(C5)N6)nc(OCC56CCCN5CC(F)C6)nc4c3F)c12 ... 10.4

Now examine the next entry.
Item under review: CC1(O)CCCC1n1c(=O)c(C(F)F)cc2cnc(NC3CCN(S(C)(=O)=O)CC3)nc21 (stereo not given) + C#Cc1c(F)ccc2cc(O)cc(-c3ncc4c(N5CC6CCC(C5)N6)nc(OCC56CCCN5CC(F)C6)nc4c3F)c12 . Reported viability, T/C?
83.5

* * *

# key: entry, value: viability, T/C
system: 349418-098-R-PDC complex spheroid viability; assay: Anticancer human tumor 349418-098-R-PDC cell line growth inhibition [RAS]; conditions: second compound 0.000949 µM; first compound 0.316 µM; active compounds read low;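 note: spheroids exposed to compound for seven days before viability readout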
Quick reminder: number only, in %, skip the unit.

CCN1CCN(Cc2ccc(Nc3ncc(F)c(-c4cc(F)c5nc(C)n(C(C)C)c5c4)n3)nc2)CC1 + CCn1c(-c2cc(N3CCN(C)CC3)cnc2C(C)OC)c2c3cc(ccc31)-c1csc(n1)CC(NC(=O)C1CC1C)C(=O)N1CCCC(N1)C(=O)OCC(C)(C)C2 ... 20.4

Now for the compound whose viability, T/C we want.
Field: viability, T/C (349418-098-R-PDC complex spheroid viability). Entry: O=C(c1ccc(F)c(F)c1Nc1ccc(I)cc1F)N1CC(O)([C@@H]2CCCCN2)C1 + CCn1c(-c2cc(N3CCN(C)CC3)cnc2C(C)OC)c2c3cc(ccc31)-c1csc(n1)CC(NC(=O)C1CC1C)C(=O)N1CCCC(N1)C(=O)OCC(C)(C)C2
6.32

* * *

test system: 349418-098-R-PDC complex spheroid viability; assay: Anticancer human tumor 349418-098-R-PDC cell line growth inhibition [RAS]; conditions: second compound 0.03 µM; first compound 0.1 µM; active compounds read low;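 note: spheroids exposed to compound for seven days before viability readout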
# label = Criterion met if viability, T/C < 90% else Criterion not met

Consider the worked cases shown below.
Cc1nc(N2CCC3(CC2)COC(C)C3N)c(CO)nc1Sc1ccnc(N)c1Cl (stereo not given) + CCn1c(-c2cc(N3CCN(C)CC3)cnc2C(C)OC)c2c3cc(ccc31)-c1csc(n1)CC(NC(=O)C1CC1C)C(=O)N1CCCC(N1)C(=O)OCC(C)(C)C2 ... Criterion not met
CC(=O)OC12COC1CC(O)C1(C)C(=O)C(O)C3=C(C)C(OC(=O)C(O)C(NC(=O)OC(C)(C)C)c4ccccc4)CC(O)(C(OC(=O)c4ccccc4)C21)C3(C)C (stereo not given) + CCn1c(-c2cccnc2C(C)OC)c2c3cc(ccc31)N1CCOC(CC(NC(=O)C(C(C)C)N(C)C(=O)C3(F)CCN(C(=O)C#CC(C)(C)N(C)C)CC3)C(=O)N3CCCC(N3)C(=O)OCC(C)(C)C2)C1 ... Criterion met

API: the following record is the query input.
Quick check: viability, T/C of CC(Nc1ccc2c(c1)OCCn1cc(N3C(=O)OCC3C(F)F)nc1-2)C(N)=O (stereo not given) + CCn1c(-c2cccnc2C(C)OC)c2c3cc(ccc31)N1CCOC(CC(NC(=O)C(C(C)C)N(C)C(=O)C3(F)CCN(C(=O)C#CC(C)(C)N(C)C)CC3)C(=O)N3CCCC(N3)C(=O)OCC(C)(C)C2)C1 under 90%?
Criterion met

* * *

test system: 349418-098-R-PDC complex spheroid viability; test: Anticancer human tumor 349418-098-R-PDC cell line growth inhibition [RAS]; details: second compound 0.3 µM; first compound 3.16 µM; active compounds read low;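 note: spheroids exposed to compound for seven days before viability readout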
recorded.endpoint: viability, T/C (%)
Field: numeric (%). Do not append units.

Look over these answered cases.
CC(=O)OC12COC1CC(O)C1(C)C(=O)C(O)C3=C(C)C(OC(=O)C(O)C(NC(=O)OC(C)(C)C)c4ccccc4)CC(O)(C(OC(=O)c4ccccc4)C21)C3(C)C (stereo not drawn) + CCn1c(-c2cc(N3CCN(C)CC3)cnc2C(C)OC)c2c3cc(ccc31)-c1csc(n1)CC(NC(=O)C1CC1C)C(=O)N1CCCC(N1)C(=O)OCC(C)(C)C2 ... 21.4
Cc1nc(N2CCC3(CC2)COC(C)C3N)c(CO)nc1Sc1ccnc(N)c1Cl (stereo not drawn) + CCn1c(-c2cccnc2C(C)OC)c2c3cc(ccc31)N1CCOC(CC(NC(=O)C(C(C)C)N(C)C(=O)C3(F)CCN(C(=O)C#CC(C)(C)N(C)C)CC3)C(=O)N3CCCC(N3)C(=O)OCC(C)(C)C2)C1 ... 101

Now look at this entry.
Which measured viability, T/C belongs to C[C@@H](NC(=O)c1ncnc(N)c1Cl)c1ncc(C(=O)Nc2cc(C(F)(F)F)c(Cl)cn2)s1 + CCn1c(-c2cccnc2C(C)OC)c2c3cc(ccc31)N1CCOC(CC(NC(=O)C(C(C)C)N(C)C(=O)C3(F)CCN(C(=O)C#CC(C)(C)N(C)C)CC3)C(=O)N3CCCC(N3)C(=O)OCC(C)(C)C2)C1 , tested on 349418-098-R-PDC complex spheroid viability?
40.9

* * *

tested on: 349418-098-R-PDC complex spheroid viability; experiment: Anticancer human tumor 349418-098-R-PDC cell line growth inhibition [RAS]; details: second compound 1 µM; first compound 0.316 µM; active compounds read low;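 note: spheroids exposed to compound for seven days before viability readout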
Overview of recorded viability, T/C for various compounds
Dear colleague, please return just the value in %, with no unit written.

Consider the reported viability, T/C for these compounds:
NC1c2ccccc2OC12CCN(c1cnc3c(N4CCCc5ncccc54)n[nH]c3n1)CC2 (centres undefined) + C=CC(=O)N1CCN(c2nc(OCC3CCCN3C)nc3c(F)c(-c4nc(N)cc(C)c4C(F)(F)F)c(Cl)cc23)C(C)C1 ... 74
C[C@@H](NC(=O)c1ncnc(N)c1Cl)c1ncc(C(=O)Nc2cc(C(F)(F)F)c(Cl)cn2)s1 + C#Cc1c(F)ccc2cc(O)cc(-c3ncc4c(N5CC6CCC(C5)N6)nc(OCC56CCCN5CC(F)C6)nc4c3F)c12 ... 107
CC1(O)CCCC1n1c(=O)c(C(F)F)cc2cnc(NC3CCN(S(C)(=O)=O)CC3)nc21 (centres undefined) + C#Cc1c(F)ccc2cc(O)cc(-c3ncc4c(N5CC6CCC(C5)N6)nc(OCC56CCCN5CC(F)C6)nc4c3F)c12 ... 28.9

Now for the compound whose viability, T/C we want.
Consider the compound shown here: Cc1nc(N2CCC3(CC2)COC(C)C3N)c(CO)nc1Sc1ccnc(N)c1Cl (centres undefined) + C=CC(=O)N1CCN(c2nc(OCC3CCCN3C)nc3c(F)c(-c4nc(N)cc(C)c4C(F)(F)F)c(Cl)cc23)C(C)C1 What is its recorded viability, T/C?
95.8
